Source of measurements: patent US8871735B2

# Tested on: AC5 (UniProt P30803)
# Construct: IC50 AC5; other: recombinant AC proteins; other: THFA: in the presence of Gs-α/GTPαS/forskolin
# Measurement notes: AC inhibition, recombinant AC proteins: AC5
# Assay type: biochemical
# Run conditions: THFA: in the presence of Gs-α/GTPαS/forskolin; read-out: IC50 for AC5

{"Compound": "Nc1ncnc2c1ncn2[C@@H]1O[C@H](CO)[C@@H](OP(=O)(O)O)[C@H]1O [3′-AMP]", "Tested on": "AC5 (UniProt P30803)", "IC50": "14.6 µM"}

====

# System: H9C2 cells
# Measurement notes: cAMP accumulation in H9C2 cells
# Format: cell-based
# Run conditions: 5 μM ISO, 3 minutes, 10 μM drug
Property name: inhibition of cAMP accumulation in H9C2 cells

{"Compound": "Nc1nccc2c1ncn2[C@@H]1O[C@H](CO)[C@@H](O)[C@H]1O", "Tested on": "H9C2 cells", "Test result": "little inhibition"}
{"Compound": "Nc1nc(F)nc2c1ncn2[C@@H]1O[C@H](CO)[C@@H](O)[C@H]1O", "Tested on": "H9C2 cells", "Test result": "moderately inhibited"}
{"Compound": "Nc1ncnc2c1ncn2[C@@H]1O[C@H](CO)[C@@H](O)[C@@H]1O", "Tested on": "H9C2 cells", "Test result": "slight inhibition"}
{"Compound": "Nc1nc(Cl)nc2c1ncn2[C@H]1C[C@H](O)[C@@H](CO)O1", "Tested on": "H9C2 cells", "Test result": "slight inhibition"}
{"Compound": "Nc1ncnc2c([C@@H]3O[C@H](CO)[C@@H](O)[C@H]3O)n[nH]c12", "Tested on": "H9C2 cells", "Test result": "moderately inhibited"}
{"Compound": "Cc1cn([C@H]2C[C@H](N=[N+]=[N-])[C@@H](COP(=O)(O)OP(=O)(O)OP(=O)(O)O)O2)c(=O)[nH]c1=O [zidovudine-TP, zidovudine triphosphate]", "Tested on": "H9C2 cells", "Test result": "little inhibition"}
{"Compound": "CC(Cn1cnc2c(N)ncnc21)OCP(=O)(O)OP(=O)(O)OP(=O)(O)O (stereo in doubt) [PMPA-PP, Tenofovir diphosphate]", "Tested on": "H9C2 cells", "Test result": "little inhibition"}
